Record form. Attribute: MIC. Fill in for each entry.
# Tested on: M. tuberculosis clinical strain 14158
# Procedure text: MIC by microplate alamarBlue assay (MABA)
# Assay type: cell-based, Mycobacterium tuberculosis
# Setup conditions: Mycobacterium tuberculosis; strain 14158: resistant to INH SM RFP EMB AK 1321 PAS OFX

Task: Form field: reported MIC of CO[C@H]1/C=C/O[C@@]2(C)Oc3c(C)c(O)c4c(O)c(c(/C=N/N5CCN(C)CC5)c(O)c4c3C2=O)NC(=O)/C(C)=C\C=C\[C@H](C)[C@H](O)[C@@H](C)[C@@H](O)[C@@H](C)[C@H](OC(C)=O)[C@@H]1C [RFP, rifampicin]
Result: > 40 µg/mL

Task: Request the reported MIC associated with NNC(=O)c1ccncc1 [INH, isoniazid]
Result: > 40 µg/mL

Task: Which MIC value is on record for COc1nc2ccc(Br)cc2cc1[C@@H](c1ccccc1)[C@@](O)(CCN(C)C)c1cccc2ccccc12 [BDQ, bedaquiline] ?
Result: 0.03 µg/mL

Task: Tell me the measured MIC of COc1ncc(-c2ccc(Cl)cc2)cc1[C@@H](c1ccccc1)[C@@](O)(CCN(C)C)c1cccc2ccccc12 [WX-081, sudapyridine] , please.
Result: 0.111 µg/mL

###

Answer each item with its documented MIC.
# Tested on: M. tuberculosis clinical strain 16030
# Procedure text: MIC by microplate alamarBlue assay (MABA)
# Format: cell-based, Mycobacterium tuberculosis
# Setup conditions: Mycobacterium tuberculosis; strain 16030: resistant to INH RFP RFT
Numeric only. Scale: µg/mL

Task: # get_value(readout='MIC', item= COc1nc2ccc(Br)cc2cc1[C@@H](c1ccccc1)[C@@](O)(CCN(C)C)c1cccc2ccccc12 )
Result: 0.017

Task: Name the reported MIC value associated with the compound NNC(=O)c1ccncc1
Result: 2.45

Task: Consider the compound shown here: COc1ncc(-c2ccc(Cl)cc2)cc1[C@@H](c1ccccc1)[C@@](O)(CCN(C)C)c1cccc2ccccc12 What is its recorded MIC?
Result: 0.057

###

# System: M. tuberculosis clinical strain 16825
# Procedure text: MIC by microplate alamarBlue assay (MABA)
# Type: cell-based, Mycobacterium tuberculosis
# Setup conditions: Mycobacterium tuberculosis; strain 16825: resistant to INH RFP AK RFT
Test readout: MIC (µg/mL)
Give the quantity in µg/mL, number only.

Task: Reported MIC, compound NNC(=O)c1ccncc1 [INH, isoniazid] : ____
Result: 2.37

Task: Value lookup for MIC; key = COc1ncc(-c2ccc(Cl)cc2)cc1[C@@H](c1ccccc1)[C@@](O)(CCN(C)C)c1cccc2ccccc12 [WX-081, sudapyridine]
Result: 0.226

Task: Need MIC, item COc1nc2ccc(Br)cc2cc1[C@@H](c1ccccc1)[C@@](O)(CCN(C)C)c1cccc2ccccc12 [BDQ, bedaquiline]
Result: 0.06
